- Target entity: GMPPNP-loaded KRAS G12C (Homo sapiens, UniProt P01116, G12C)
- Sequence (P01116 1-188 isoform P01116-2 G12C): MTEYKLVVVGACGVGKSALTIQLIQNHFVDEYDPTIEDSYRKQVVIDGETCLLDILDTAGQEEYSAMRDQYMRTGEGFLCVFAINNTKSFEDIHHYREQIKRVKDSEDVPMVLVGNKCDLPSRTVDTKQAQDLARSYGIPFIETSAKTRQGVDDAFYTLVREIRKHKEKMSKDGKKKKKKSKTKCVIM
- Test summary: KRAS G12C RAF Disruption Assay (HTRF)
- Condition set: recombinant GMPPNP-loaded KRAS G12C (5 nM), 20 min with compound; GST-RAF1 RBD (9 nM); HTRF signal; read-out: KRASG12C RAF Disruption Assay (IC50)
pIC50: −log10 of the molar value.
Attribute measured: pIC50

{"columns": ["Compound", "Value observed"],
 "data": [
  ["C#Cc1cccc2cccc(-c3ncc4c(N5CCN(C(=O)/C(F)=C/c6nccs6)CC5)nc(OC[C@@]56CCCN5C[C@H](F)C6)nc4c3F)c12", 7.00]
]}

[A] Cn1ncc2cccc(-c3ncc4c(N5CCN(C(=O)/C(F)=C/c6nccs6)[C@@H](CC#N)C5)nc(OC[C@@]56CCCN5C[C@H](F)C6)nc4c3F)c21
[B] CN(c1nc(OC[C@@]23CCCN2C[C@H](F)C3)nc2c(F)c(-c3cccc4cccc(C#N)c34)ncc12)[C@@H]1CCN(C(=O)/C(F)=C/c2nccs2)C1
[C] C#Cc1cccc2cccc(-c3ncc4c(N(C)C5CCN(C(=O)/C(F)=C/c6nccs6)C5C)nc(OC[C@@]56CCCN5C[C@H](F)C6)nc4c3F)c12 (single isomer, unassigned) [Example 73 cis isomer 2]
[D] C#Cc1c(F)ccc2cccc(-c3ncc4c(N5CCN(C(=O)/C(F)=C/c6ncccn6)C[C@@H]5C)nc(OC[C@@]56CCCN5C[C@H](F)C6)nc4c3F)c12
QUERY: Provide the items ranked by increasing pIC50. List the labels, following the order given in the request.
RESULT: C, B, A, D
(C: 5.74, B: 6.14, A: 6.37, D: 6.96)
